The following molecules are shown together with reported TGI values.
Tested on: OVCAR-8 ovarian
Experiment: NCI tumour cell line growth inhibition, 48 h

Check out these entries, answers already filled in.
COc1cc(C)cc2c1C(=O)C(NC(C)=O)=CC2=O | > 100 µM
CC(C)CC1CC2C(=O)N(c3ccccc3)C(=O)C2c2[nH]c3ccccc3c21 (stereo not drawn) | 51.6 µM
COc1ccc(C)cc1NC(=S)N/N=C/c1ccco1 | > 100 µM

Then this molecule:
Quick check: TGI of `COC(=O)C1=CCC[C@H]2[C@@]1(COC(C)=O)CC[C@@H](C)[C@]2(C)CC(=O)c1ccoc1` ?
> 50 µM
